FYI, the data here is from the supplement of paper PMC11451515.

In this section we review reported cell viability values for a set of compounds.
- Test system: P12-Ichikawa
- protocolSummary: cell viability relative to DMSO control; higher = less cytotoxic
- conditionsUsed: HPLM + 10% dialyzed FBS; 48 h; 1.71 µM
Your answer should be a plain number; it is taken to be in %.

stdin: For the compound C=CC(=O)Nc1cccc(Sc2nc(Nc3ccc(N4CCN(C)CC4)cc3)ncc2Cl)c1 , what cell viability is on record?
stdout: 118

====

- System: NOMO1
- protocolSummary: AUC of viability dose-response curve (% viability x log10 dose units); higher = less sensitive
- conditionsUsed: RPMI 5 mM glucose + 10% FBS; 48 h
readout: AUC of viability dose-response curve
# respond with the number and nothing more

Solved cases (8 shown):
CC(C)C1CCC(C(=O)N[C@H](Cc2ccccc2)C(=O)O)CC1 (stereo not given in full) : 418
Clc2cccc(Cl)c2\N=C1/NCCN1 : 474
CCOC(=O)N1CCN(/[N+]([O-])=N/Oc2cc(O/N=[N+](\[O-])N3CCN(C(=O)OCC)CC3)c([N+](=O)[O-])cc2[N+](=O)[O-])CC1 : 460
CCCN[C@H]1CCc2nc(N)sc2C1 : 434
COCCn1c2c([n+](Cc3cnccn3)c1C)C(=O)c1ccccc1C2=O : 232
Oc1ccc(OCc2ccccc2)cc1 : 444
CN(CCOc1ccc(CC2SC(=O)NC2=O)cc1)c1ccccn1 (stereo not given) : 474
Cc1cc(Nc2ncc3c(n2)N(C)C(=O)N(c2cc(NC(=O)c4cccc(C(F)(F)F)c4)ccc2C)C3)n(C)n1 : 362

stdin: For the compound O=C(O)c1cc(O)c2c(c1)C(=O)c1cccc(O)c1C2=O , what AUC of viability dose-response curve is on record?
stdout: 445

stdin: For the compound Cc1ccc(C(=O)Nc2cccc(C(F)(F)F)c2)cc1Nc1nc(-c2cccnc2)nc2c1cnn2C , what AUC of viability dose-response curve is on record?
stdout: 396
